Target: T1, human G-protein-coupled receptor family C group 5 member D (GPRC5D) (human, UniProt Q9NZD1 1-345)
T1 construct: whole, on cells; also called human GPRC5D protein
T1 sequence (Q9NZD1 whole entry): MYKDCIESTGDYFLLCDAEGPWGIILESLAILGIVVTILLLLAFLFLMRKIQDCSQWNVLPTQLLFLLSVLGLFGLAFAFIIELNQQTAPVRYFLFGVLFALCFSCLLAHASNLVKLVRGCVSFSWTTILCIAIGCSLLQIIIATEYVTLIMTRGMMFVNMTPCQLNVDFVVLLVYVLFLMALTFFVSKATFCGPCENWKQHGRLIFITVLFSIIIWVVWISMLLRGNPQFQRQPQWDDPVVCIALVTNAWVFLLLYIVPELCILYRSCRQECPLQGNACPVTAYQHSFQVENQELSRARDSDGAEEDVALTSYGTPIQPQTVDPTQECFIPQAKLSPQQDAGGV
Assay: FACS, CHO-K1/GPRC5D
Value Kind: Span
One number for each entry.

>>> quantitative_readout("6G10D9-XI (antibody, V domains shown, also called 6G10D9 (chimeric); 6G1009-X1) VH: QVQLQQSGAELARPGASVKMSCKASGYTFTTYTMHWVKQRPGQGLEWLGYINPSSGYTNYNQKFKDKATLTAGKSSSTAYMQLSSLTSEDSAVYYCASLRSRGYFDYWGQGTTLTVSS VL: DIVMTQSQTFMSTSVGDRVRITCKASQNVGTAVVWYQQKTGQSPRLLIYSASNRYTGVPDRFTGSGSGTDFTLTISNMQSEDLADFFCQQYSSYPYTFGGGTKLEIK")
115000
>>> quantitative_readout("6-H4L3 (antibody, V domains shown, humanized 6G10D9, VH v4 x VL v3) VH: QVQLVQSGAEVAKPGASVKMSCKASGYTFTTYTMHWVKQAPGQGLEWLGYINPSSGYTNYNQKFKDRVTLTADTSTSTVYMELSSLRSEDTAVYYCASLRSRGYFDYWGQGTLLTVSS VL: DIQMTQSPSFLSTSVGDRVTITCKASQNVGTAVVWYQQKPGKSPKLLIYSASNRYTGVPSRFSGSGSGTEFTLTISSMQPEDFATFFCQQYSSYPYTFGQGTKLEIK")
124000
>>> quantitative_readout("6-H4L2 (antibody, V domains shown, humanized 6G10D9, VH v4 x VL v2) VH: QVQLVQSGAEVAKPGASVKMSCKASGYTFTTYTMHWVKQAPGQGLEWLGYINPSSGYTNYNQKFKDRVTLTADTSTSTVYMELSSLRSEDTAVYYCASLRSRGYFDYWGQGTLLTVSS VL: DIQLTQSPSFLSTSVGDRVTITCKASQNVGTAVVWYQQKPGKSPKLLIYSASNRYTGVPSRFSGSGSGTEFTLTISSLQPEDFATFYCQQYSSYPYTFGQGTKLEIK")
39400

IN: Span for 6-H3L2 (antibody, V domains shown, humanized 6G10D9, VH v3 x VL v2) VH: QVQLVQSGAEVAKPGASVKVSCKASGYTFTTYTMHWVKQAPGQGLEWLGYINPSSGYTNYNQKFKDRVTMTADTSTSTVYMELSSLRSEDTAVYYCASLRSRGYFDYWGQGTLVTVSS VL: DIQLTQSPSFLSTSVGDRVTITCKASQNVGTAVVWYQQKPGKSPKLLIYSASNRYTGVPSRFSGSGSGTEFTLTISSLQPEDFATFYCQQYSSYPYTFGQGTKLEIK ?
OUT: 47400
